For each record, write down the corresponding viability.
Protocol Description: reversal of MRP1-mediated doxorubicin resistance, pilot screen, H69AR cells, doxorubicin co-treatment (AID 601)
Conditions: H69AR cells + 2 uM doxorubicin, CellTiter-Glo, 72 h; measured here: viability with 2 uM doxorubicin; at 10 µM; stronger effect = lower value
Numbers only, in %.

The following compounds have reported results that may help.
{"columns": ["Compound", "Observed"],
 "data": [
  ["Cc1ccccc1NC(=O)C1CC(=O)N(c2ccccc2F)C1 (stereo unspecified)", 82.1],
  ["CCOC(=O)N1CCN(Cc2cc(=O)oc3ccc4ccccc4c23)CC1", 79.6],
  ["CCCc1cc(=O)n2[nH]c(-c3ccc(Br)cc3)cc2n1", 88.7],
  ["COc1ccc(C(NC(=O)C(C)(C)C)NC(=O)C(C)(C)C)cc1", 85.5]
]}

Give viability for each listed item.
1. O=C1CC(c2ccc(Cl)cc2)n2nc(N3C(=O)c4ccccc4C3=O)nc2N1 (stereo unspecified)
2. CCC(CC)C(=O)Nc1cccc(C(=O)NCc2ccco2)c1
3. CC(C)CCNC(=O)C(c1cccs1)N(CC1CCCO1)C(=O)Cn1nnc2ccccc21 (stereo unspecified)
4. CCn1nc(C)c(NC(=O)c2cc(Br)ccc2Cl)c1C
5. CC(C)(C)Cc1nc(-c2ccccn2)no1
6. CCOC(=O)CN1C(=O)C2(OCCCO2)c2ccccc21
7. COc1cccc(C2C(C#N)=C(N)OC3=C2C(=O)CCC3)c1OC(=O)c1ccco1 (stereo unspecified)

[94.1, 89.6, 85.5, 79.7, 92.9, 89.7, 86.6]

* * *

Protocol Description: growth inhibitors of H69AR lung tumor, primary screen, human, duplicate replicates (AID 580);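 further: 100% = mean luminescence of untreated wells and 0% = no signal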
Conditions: H69AR lung tumor cells viability, ATP luminescence, 72 h; at 10 µM; stronger effect = lower value
Measure: viability (%)
Answers are plain numbers, in %.

The following molecules have reported results that may help.
{"columns": ["Molecule", "viability, %"],
 "data": [
  ["Cc1csc(NC(=O)CCCSc2nc3ccccc3s2)n1", 96],
  ["COCC(=O)N(Cc1ccc(OC)cc1)Cc1nc2ccccc2c(=O)[nH]1", 86.2],
  ["CC1CCC(C(=O)NC(C(=O)NCCN2CCC(C)CC2)C(C)C)CC1 (stereo unspecified)", 81.3]
]}

Give viability for each listed item.
1. CCOC(=O)CNS(=O)(=O)c1c(C)noc1C
2. CCC(=O)N[C@@H]1CC(C(C)(C)NC(=O)CC)CC=C1C (stereo partly specified)
3. CCOC(=O)CSc1nc2ccccc2c(=O)n1CCN1CCOCC1

107
86.4
95.4

* * *

Protocol Description: reversal of MRP1-mediated doxorubicin resistance, pilot screen, H69AR cells, doxorubicin co-treatment (AID 601)
Conditions: H69AR cells + 2 uM doxorubicin, CellTiter-Glo, 72 h; measured here: viability with 2 uM doxorubicin; at 10 µM; stronger effect = lower value
Measure: viability (%)
Answers are plain numbers, in %.

The following molecules have reported results that may help.
{"columns": ["Molecule", "viability [%]"],
 "data": [
  ["COc1cccc(N2CCN(C(=O)C3C4C=CC5(CN(Cc6ccccc6Cl)C(=O)C35)O4)CC2)c1 (configuration not stated)", 91.3],
  ["CC(C(=O)NCCCN1CCOCC1)n1cccc1C(=O)c1ccccc1 (configuration not stated)", 89.3],
  ["COc1ccccc1-n1c(C)nnc1SCC(N)=O", 77.7],
  ["CCOC(=O)c1cnc(SCC)[nH]c1=O", 103],
  ["O=C(NCCN1CCOCC1)C1CC(=O)N(c2ccc(F)c(Cl)c2)C1 (configuration not stated)", 94.9],
  ["Cc1ccc(-c2noc(CCC(=O)NCC3CCN(Cc4cccc(C)c4)CC3)n2)cc1", 95.6],
  ["CCc1ccc(C=NC23CN4CN(CN(C4)C2)C3)s1", 95.2],
  ["CCCCc1nccn1CCn1ccnc1CCCC", 86.7],
  ["CN(C)S(=O)(=O)c1ccc(C(=O)Nc2ccccc2C(=O)O)cc1", 95.7],
  ["COc1ccc(Cl)cc1Nc1nc(C)cc(=O)[nH]1", 93.7]
]}

Give viability for each listed item.
1. Cc1nc(N2CCOCC2)[nH]c(=O)c1CCC(C)C
2. Cc1cc2oc(=O)cc(CN3CCN(Cc4ccc5c(c4)OCO5)CC3)c2cc1C

91
80

* * *

Protocol Description: growth suppression of yeast trafficking mutant, preliminary HTS, modulators of trafficking downstream of Golgi apparatus project, 1536-format plate, OD 615 nm (AID 637)
Conditions: yeast transport mutant growth, absorbance 615 nm, 18 h; stronger effect = higher value
Measure: inhibition (%)
Give bare numbers, in %.

The following compounds have reported results that may help.
{"columns": ["Structure As Smiles", "inhibition / %"],
 "data": [
  ["Cc1ccccc1-c1nc(CS(=O)(=O)CC(=O)NCc2ccc3c(c2)OCO3)c(C)o1", 3.61],
  ["COc1ccc(-c2noc(COc3ccc4ccccc4c3Br)n2)cc1OC", -3.23],
  ["Cn1c(SCC(N)=O)nnc1C1CCN(S(=O)(=O)c2ccccc2C(F)(F)F)CC1", -0.33],
  ["Cc1ccc(Nc2nc(CSc3nnnn3C)cs2)cc1", -1.45],
  ["CCCn1c(=O)c2ccccc2n2c(SCCOc3ccccc3F)nnc12", -6.72]
]}

Here's the next entry for you.
Give the reported value of inhibition for this record: `Cc1nnc2ccc(N3CCN(c4cccc(C(F)(F)F)c4)CC3)nn12`
-1.15

* * *

Protocol Description: 384-well plate pilot, post-Golgi transport modulator project, inhibition of yeast transport mutant growth (AID 636)
Conditions: absorbance 615 nm, about 18 h, stronger effect = higher value
Measure: inhibition (%)
Answers are plain numbers, in %.

{"columns": ["Molecule", "inhibition, %"],
 "data": [
  ["O=C(O)Cn1cc2c(n1)CCCC2", -2],
  ["CCOCCCNC(=O)C1CCN(S(=O)(=O)N(CC(C)C)CC(C)C)CC1", -4.13]
]}

Give inhibition for each listed item.
1. O=c1c2c(nc3nc(CCc4ccccc4)[nH]n13)CCC2
2. Cc1ccc(S(=O)(=O)N2CCOCC2)cc1C(=O)OCC(=O)N1CCc2ccccc2C1
3. Cc1ccccc1CS(=O)(=O)Cc1ccc(C(=O)NCCCN2CCOCC2)o1
4. CCc1nnc2sc(-c3cc(-c4ccccc4)nc4ccccc34)nn12
5. COc1ccc(N2CCN(Cc3nc4c(c(=O)[nH]c(=O)n4C)n3CC(C)=O)CC2)cc1

1. -6
2. -4
3. -0.39
4. -1.82
5. 0

Give inhibition for each listed item.
1. Cc1ccc(-c2cc(C(F)(F)F)n3ncc(C(=O)O)c3n2)cc1
2. CCc1nc(C)c(C#N)c2cc(OC)c(OC)cc12
3. O=C(O)CC1=C(O)C(=O)N(c2ccccc2)C1c1ccccc1 (configuration not stated)

-7.87
-0.91
-1.49

* * *

Protocol Description: SK-BR-3 cell growth inhibitors, pilot screen, 24 h, human (AID 572);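 further: compound exposure lasted between 18 and 24 h rather than exactly 24 h; 100% = carrier-treated control wells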
Conditions: SK-BR-3 viability, CellTiter-Glo luminescence, at 10 µM, stronger effect = lower value
Assign labels as follows, please: met for viability below 90%; not met for viability equal to or exceeding 90%.

Example entries begin here.
{"columns": ["Compound", "Category"],
 "data": [
  ["CN(CC(=O)N1CCN(c2ccc(F)cc2)CC1)S(=O)(=O)c1ccc(F)cc1", "not met"],
  ["O=C(NC1CCCC1)c1c[nH]c2ccc(F)cc2c1=O", "not met"],
  ["Cc1cc(C)c(C)c(OCC(=O)NCC2CCCO2)c1 (centres undefined)", "met"],
  ["COc1cccc(Oc2ccc(N)cn2)c1", "met"]
]}

Now examine the next entry.
For this compound, is viability lower than 90%? `Cc1nc2ccccc2c2oc(C(=O)NCc3ccccn3)cc12`
met

* * *

For each record, write down the corresponding inhibition.
Protocol Description: growth suppression of yeast trafficking mutant, preliminary HTS, modulators of trafficking downstream of Golgi apparatus project, 1536-format plate, OD 615 nm (AID 637)
Conditions: yeast transport mutant growth, absorbance 615 nm, 18 h; stronger effect = higher value
Active and inactive are the calls of the source. Cut-off read from the data, not from the text of the source: active = inhibition above about 30%; inactive = the rest.

The following compounds have reported results that may help.
{"columns": ["Compound", "inhibition"],
 "data": [
  ["COc1ccc(CN(C(=O)c2cccs2)c2nccs2)cc1OC", "-0.98% (inactive)"],
  ["Cc1ccc2[nH]c(=O)c(CN(Cc3ccc4c(c3)OCO4)Cc3nnnn3Cc3ccco3)cc2c1", "-3.49% (inactive)"],
  ["CCn1c(C)nc2cc(C(=O)OCCC(F)(F)F)ccc21", "7.67% (inactive)"],
  ["CCN(CC)S(=O)(=O)c1ccc2oc(SCc3ccc(F)cc3)nc2c1", "-0.95% (inactive)"],
  ["COc1ccc(-c2cc(C(=O)NCCc3ccccc3)no2)cc1OC", "-12.7% (inactive)"],
  ["CC12CN3CC(C)(CN(C1)C3c1cc(Br)ccc1O)C2=O (stereo unspecified)", "-3.83% (inactive)"],
  ["Cc1cc(C)c2cc3c(ccn3C3OC[C@H](O)[C@H](O)[C@H]3O)cc2n1 (stereo partly specified)", "1% (inactive)"],
  ["COC(=O)c1cc(Br)c(=O)n(CCC2=CCCCC2)c1", "6.89% (inactive)"],
  ["COc1ccc(-c2nnc(SCCC(=O)O)n2-c2ccccc2)cc1", "-0.49% (inactive)"],
  ["CC(=O)C1=C(O)C(=O)N(Cc2ccco2)C1c1ccc2c(c1)OCO2 (stereo unspecified)", "0.48% (inactive)"]
]}

Give the reported value of inhibition for this record: `Nc1ccc(-c2ccc(N)cc2C(F)(F)F)c(C(F)(F)F)c1`
-0.66% (inactive)
